Measured EC50 of individual entries
tgt: P-gp (Homo sapiens, UniProt P08183)
Sequence (P08183 whole entry): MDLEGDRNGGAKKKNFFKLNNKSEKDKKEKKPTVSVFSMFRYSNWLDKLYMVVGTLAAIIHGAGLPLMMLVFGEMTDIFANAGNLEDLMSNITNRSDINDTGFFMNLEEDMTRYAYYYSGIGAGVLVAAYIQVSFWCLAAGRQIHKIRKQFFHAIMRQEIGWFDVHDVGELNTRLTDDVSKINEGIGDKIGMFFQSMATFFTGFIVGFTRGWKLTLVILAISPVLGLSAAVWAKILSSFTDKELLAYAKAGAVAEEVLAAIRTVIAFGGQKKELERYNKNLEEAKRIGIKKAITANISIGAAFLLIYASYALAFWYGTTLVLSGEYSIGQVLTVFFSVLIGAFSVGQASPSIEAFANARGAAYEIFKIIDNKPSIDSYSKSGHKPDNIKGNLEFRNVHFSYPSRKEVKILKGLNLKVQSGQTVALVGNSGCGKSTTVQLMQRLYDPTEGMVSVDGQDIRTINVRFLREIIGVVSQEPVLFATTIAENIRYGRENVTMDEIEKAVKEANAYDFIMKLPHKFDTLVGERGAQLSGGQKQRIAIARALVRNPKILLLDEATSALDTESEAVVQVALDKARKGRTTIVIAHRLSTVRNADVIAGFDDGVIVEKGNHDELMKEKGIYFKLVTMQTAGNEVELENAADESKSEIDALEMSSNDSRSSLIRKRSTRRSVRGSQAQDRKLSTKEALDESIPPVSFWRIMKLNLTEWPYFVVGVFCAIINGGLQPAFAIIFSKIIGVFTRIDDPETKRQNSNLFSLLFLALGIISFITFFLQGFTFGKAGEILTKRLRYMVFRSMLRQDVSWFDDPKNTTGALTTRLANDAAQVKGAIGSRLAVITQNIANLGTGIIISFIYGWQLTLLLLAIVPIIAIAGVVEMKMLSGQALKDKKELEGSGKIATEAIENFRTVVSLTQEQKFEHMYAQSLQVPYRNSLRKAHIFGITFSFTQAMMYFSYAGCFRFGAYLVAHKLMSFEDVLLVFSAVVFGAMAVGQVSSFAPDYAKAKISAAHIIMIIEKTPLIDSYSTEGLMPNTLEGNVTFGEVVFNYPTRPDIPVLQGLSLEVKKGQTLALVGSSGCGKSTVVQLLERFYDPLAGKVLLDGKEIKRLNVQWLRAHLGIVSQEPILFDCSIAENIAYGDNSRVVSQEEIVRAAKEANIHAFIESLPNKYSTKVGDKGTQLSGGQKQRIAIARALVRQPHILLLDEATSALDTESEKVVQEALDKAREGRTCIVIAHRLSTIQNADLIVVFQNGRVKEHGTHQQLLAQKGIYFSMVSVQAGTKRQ
assay details: Calcein-AM transport inhibition in MDCK-MDR1 cells
Give your result in µM as a bare value.

# count of solved cases: 3
COc1ccc(-c2nc(NCCc3ccccc3)c3ccccc3n2)c(OC)c1OC
1.41
COc1cc2c(cc1OC)CN(CCc1ccc(Nc3nc(-c4c(OC)c(OC)cc5ccccc45)nc4ccccc34)cc1)CC2
0.2
COc1ccc(C(c2ccc(OC)cc2)c2nc(Nc3ccc(CCN4CCc5cc(OC)c(OC)cc5C4)cc3)c3ccccc3n2)cc1
0.11

Challenge: Look at this compound and give its reported EC50. `COc1ccc(C(c2ccc(OC)cc2)c2nc(N3CCN(C)CC3)c3ccccc3n2)cc1`
Response given: 0.96

Challenge: Look at this compound and give its reported EC50. `COc1ccc(-c2nc(N3CCOCC3)c3ccccc3n2)c(OC)c1OC`
Response given: 9.55

Challenge: Look at this compound and give its reported EC50. `COc1ccc(C(c2ccc(OC)cc2)c2nc(N3CCc4cc(OC)c(OC)cc4C3)c3ccccc3n2)cc1`
Response given: 0.16

Challenge: Look at this compound and give its reported EC50. `COc1cc2c(cc1OC)CN(c1nc(-c3c4ccccc4cc4ccccc34)nc3ccccc13)CC2`
Response given: 1.14

Challenge: Look at this compound and give its reported EC50. `COc1ccc(C(c2ccc(OC)cc2)c2nc(N3CCOCC3)c3ccccc3n2)cc1`
Response given: 2.13

Challenge: Look at this compound and give its reported EC50. `COc1ccc2ccccc2c1-c1nc(N2CCN(C)CC2)c2ccccc2n1`
Response given: 6.06

* * *

tgt: BCRP (Homo sapiens, UniProt Q9UNQ0)
Construct: gift of Prof; P. Borst, NKI-AVL
Sequence (Q9UNQ0 whole entry): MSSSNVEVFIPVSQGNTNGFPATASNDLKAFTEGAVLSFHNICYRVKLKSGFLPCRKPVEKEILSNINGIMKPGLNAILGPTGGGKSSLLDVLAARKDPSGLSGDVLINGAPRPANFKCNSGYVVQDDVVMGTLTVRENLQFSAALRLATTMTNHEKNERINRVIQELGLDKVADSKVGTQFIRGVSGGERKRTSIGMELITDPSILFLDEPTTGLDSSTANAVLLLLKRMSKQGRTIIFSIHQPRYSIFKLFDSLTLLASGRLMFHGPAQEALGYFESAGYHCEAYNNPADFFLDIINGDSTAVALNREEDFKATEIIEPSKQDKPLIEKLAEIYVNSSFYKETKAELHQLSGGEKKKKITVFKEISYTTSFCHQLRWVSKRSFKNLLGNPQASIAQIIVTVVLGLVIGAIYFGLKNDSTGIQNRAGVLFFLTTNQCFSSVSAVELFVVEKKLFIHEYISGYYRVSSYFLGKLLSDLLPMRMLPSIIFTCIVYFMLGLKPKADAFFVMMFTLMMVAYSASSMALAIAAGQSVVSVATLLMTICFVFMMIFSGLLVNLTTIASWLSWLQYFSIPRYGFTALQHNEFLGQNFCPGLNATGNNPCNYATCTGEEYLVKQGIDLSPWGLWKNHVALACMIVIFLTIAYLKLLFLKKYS
assay details: Hoechst 33342 transport inhibition in MDCK-BCRP cells
conditions used: MDCK-BCRP cells overexpressing BCRP, mean ±SEM
readout kind: EC50 (µM)
Give your result in µM as a bare value.

Challenge: Look at this compound and give its reported EC50. COc1ccc(C(c2ccc(OC)cc2)c2nc(N3CCN(C)CC3)c3ccccc3n2)cc1 [Compound 7 d]
Response given: 8.62

* * *

tgt: MRP1 (Homo sapiens)
Sequence (P33527 whole entry): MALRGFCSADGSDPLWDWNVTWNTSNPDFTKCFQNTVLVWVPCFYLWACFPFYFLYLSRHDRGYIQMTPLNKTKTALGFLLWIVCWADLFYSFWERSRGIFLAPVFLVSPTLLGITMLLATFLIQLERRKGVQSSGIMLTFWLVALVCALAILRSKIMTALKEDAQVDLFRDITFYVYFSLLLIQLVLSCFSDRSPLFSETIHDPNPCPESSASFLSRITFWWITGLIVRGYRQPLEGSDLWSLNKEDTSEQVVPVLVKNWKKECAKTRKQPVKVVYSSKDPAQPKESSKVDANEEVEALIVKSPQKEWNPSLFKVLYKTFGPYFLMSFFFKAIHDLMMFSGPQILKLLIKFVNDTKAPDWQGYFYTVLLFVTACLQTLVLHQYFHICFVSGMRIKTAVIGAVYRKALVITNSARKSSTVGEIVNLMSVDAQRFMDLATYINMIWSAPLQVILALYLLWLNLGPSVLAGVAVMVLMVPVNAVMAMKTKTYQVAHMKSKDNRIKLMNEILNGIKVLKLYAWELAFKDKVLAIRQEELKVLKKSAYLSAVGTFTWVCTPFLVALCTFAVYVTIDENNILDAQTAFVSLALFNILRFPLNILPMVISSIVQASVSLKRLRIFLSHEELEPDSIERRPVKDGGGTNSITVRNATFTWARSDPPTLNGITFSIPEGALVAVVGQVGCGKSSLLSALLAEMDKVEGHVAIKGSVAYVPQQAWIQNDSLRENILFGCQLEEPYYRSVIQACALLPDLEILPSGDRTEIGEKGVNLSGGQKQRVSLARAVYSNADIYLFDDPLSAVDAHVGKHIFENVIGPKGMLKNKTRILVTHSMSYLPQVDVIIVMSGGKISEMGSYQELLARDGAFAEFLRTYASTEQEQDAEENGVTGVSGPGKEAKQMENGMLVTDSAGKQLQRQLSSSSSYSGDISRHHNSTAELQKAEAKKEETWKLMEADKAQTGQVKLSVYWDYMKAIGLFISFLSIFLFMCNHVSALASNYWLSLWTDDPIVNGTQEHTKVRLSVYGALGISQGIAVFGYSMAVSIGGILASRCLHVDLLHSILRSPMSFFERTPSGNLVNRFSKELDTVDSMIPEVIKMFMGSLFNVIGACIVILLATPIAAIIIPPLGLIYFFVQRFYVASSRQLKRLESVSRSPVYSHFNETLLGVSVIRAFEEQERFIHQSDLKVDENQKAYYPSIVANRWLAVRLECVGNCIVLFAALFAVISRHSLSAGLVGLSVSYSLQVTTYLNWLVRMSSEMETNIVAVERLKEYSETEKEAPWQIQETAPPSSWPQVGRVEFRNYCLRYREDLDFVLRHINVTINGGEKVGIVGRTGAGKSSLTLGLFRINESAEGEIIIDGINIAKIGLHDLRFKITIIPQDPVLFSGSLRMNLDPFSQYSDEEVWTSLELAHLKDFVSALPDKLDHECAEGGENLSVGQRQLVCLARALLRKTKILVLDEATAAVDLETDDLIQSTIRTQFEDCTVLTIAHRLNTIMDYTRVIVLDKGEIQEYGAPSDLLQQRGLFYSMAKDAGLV
assay details: cell-based
Measured pEC50 of individual entries
Please treat pEC50 as minus the base-10 logarithm of the molar concentration.

COc1ccc(C(c2ccc(OC)cc2)c2nc(N3CCN(C)CC3)c3ccccc3n2)cc1
4.36

Challenge: Look at this molecule and give its reported pEC50. `COc1ccc(-c2nc(NCCc3ccccc3)c3ccccc3n2)c(OC)c1OC`
Response given: 4.28

* * *

tgt: P-gp (Homo sapiens)
assay details: ATP cell depletion (ATPlite assay) in MDCK-MDR1 cells
conditions used: Yes/No
readout kind: ATP cell depletion

COc1ccc(C(c2ccc(OC)cc2)c2nc(Nc3ccc(CCN4CCc5cc(OC)c(OC)cc5C4)cc3)c3ccccc3n2)cc1 [Compound 7 a]
No
COc1ccc(-c2nc(N3CCOCC3)c3ccccc3n2)c(OC)c1OC [Compound 4 c]
No

* * *

Tested on: P-gp
assay details: Apparent permeability (Papp, BA/AB) in Caco-2 cell monolayer
conditions used: human, Caco-2, P app (BA/AB), two experiments in duplicate
readout kind: efflux ratio at 120 min, 100 μM
Reply: number alone, nothing else.

# count of solved cases: 3
COc1ccc(C(c2ccc(OC)cc2)c2nc(N3CCc4cc(OC)c(OC)cc4C3)c3ccccc3n2)cc1 [Compound 7 e]
8.4
COc1cc2c(cc1OC)CN(c1nc(-c3c4ccccc4cc4ccccc34)nc3ccccc13)CC2 [Compound 3 e]
18.5
COc1cc2c(cc1OC)CN(CCc1ccc(Nc3nc(-c4c(OC)c(OC)cc5ccccc45)nc4ccccc34)cc1)CC2 [Compound 6 a]
19.2

Please look at the following compound next.
Challenge: efflux ratio at 120 min, 100 μM of c1ccc(CCNc2nc(-c3c4ccccc4cc4ccccc34)nc3ccccc23)cc1 [Compound 3 b] on P-gp?
Response given: 10.5

Every entry's value here was drawn from paper PMC9325490.
